- Tested on: DU-145 prostate
- experiment description: NCI-60 one-dose screen, 48 h
- measurement conditions: 10 µM unless noted
Compounds without any hit were thinned out: in the full panel of roughly 83,000, 20% have a hit. Activity calls are given as the source filed them. Rule for the calls: active = growth percent below 10; inactive = the rest.
Use one of these outcomes when replying: yes for active, no for inactive

A selection of reference data follows.
Record lookup: outcome of this test for COc1cccc2cc(-c3cc4ccccc4[nH]3)/c(=N/C(=S)Nc3ccccc3)oc12 ? no

Field: outcome | Entry: O=P([O-])(O)OP(=O)([O-])O.[NH-][C@H]1CCCC[C@@H]1[NH-].[OH-].[OH-].[Pt+4] no

Call for entry COc1cc(C(=O)N2CCN(C(=O)c3ccco3)CC2)c(N)cc1OCc1ccccc1 : no

Please state the recorded outcome for this molecule: CCCCCCC[C@@H](O)CC(=O)N[C@H](CCCCN)C(=O)N[C@H](Cc1c[nH]c2ccccc12)C(=O)NC(CCCCN)C(=O)N[C@H](CC(C)C)C(=O)N[C@H](Cc1ccccc1)C(=O)N[C@H](CCCCN)C(=O)N[C@H](CCCCN)C(=O)N[C@H](CC(C)C)C(=O)N1CCCC1C(=O)N[C@H](CCCCN)C(=O)N[C@H](Cc1ccccc1)C(=O)N[C@H](CC(C)C)C(=O)N[C@H](Cc1c[nH]cn1)C(=O)N[C@H](CC(C)C)C(=O)N[C@H](C)C(=O)N[C@H](CCCCN)C(=O)N[C@H](CCCCN)C(=O)N[C@H](Cc1ccccc1)C(=O)O (some centres not stated) yes

Record request — test call for Cc1cc(C)c(S(=O)(=O)N2CCN(c3cc4c(cc3F)c(=O)c(C(=O)O)cn4C3CC3)CC2)c(C)c1 no

---
Record request — test call for CCCCCCCCCCCCCCCCC(Br)C(=O)O (configuration not stated) no

Field: outcome | Entry: COc1ccc(/C=N/NC(=O)Cn2c(Cc3cccc4ccccc34)nc3ccccc32)cc1 no

// return assay outcome for CCOC(=O)C1=C(C)NC(=O)NC1c1ccc(OCC(=O)N/N=C/c2ccc(Cl)cc2)cc1 (configuration not stated) no

Short answer needed: outcome of this test for CC1CCN(C(=O)CSc2nc3sc4c(c3c(=O)[nH]2)CCCC4)CC1 ? no

Hello, I am checking results. What call was entered for O=C1NC(Cc2c[nH]c3ccccc23)C(=O)N1Cc1ccc(Cl)cc1 (configuration not stated) ? no

Hi, do you know how CCN(CC)CCCNc1nc(C)cc(Nc2ccc3nc(C)cc(N)c3c2)n1 came out in this test? no

Could you kindly confirm the outcome this assay logged for CN1CCN(c2ccc3cc(-c4nc5ccccc5[nH]4)c(=O)oc3c2)CC1 ? no

Could you kindly confirm the outcome this assay logged for COc1ccc2c(c1)C(C)Cc1c(N(C)C)ncnc1N2C (configuration not stated) ? no

Entry O=[N+]([O-])c1cc(S(=O)(=O)OCC2CO2)ccc1Cl (configuration not stated) : call = ? no

Any idea what this test logged for CC(C)C(C(=O)CCN(C)C)c1ccc(Cl)cc1 (configuration not stated) ? no

What is the recorded call for this molecule in the test? CCN(CC)CCSc1c2ccc(Cl)cc2nc2ccc(OC)cc12 yes

Tell me the assay call for COc1cc(Cn2c(SCC(=O)Nc3ccc(Cl)cc3)nc3ccccc3c2=O)cc(OC)c1OC please. no

Field: outcome | Entry: C/C(=N\NC(=O)CC#N)c1cc2cc(Cl)ccc2o1 no
